system: Plasmodium berghei; test: Screen against P. berghei liver stage (PbLuc), transformed with Luciferase, at 10uM; format: functional, HepG2; settings: tested at 10 uM
In all, about 69,000 compounds went through this assay and about 8,600 (12%) showed an effect of 50% or more. Shown is part of a subset that was picked to be rich in strong results.
What INHIBITION was measured for each of the following?
All answers are understood in %, so give the number only.

query: Give INHIBITION for the following molecule: O=C(NCc1ccon1)c1c(F)cc(Br)cc1F
result: -7.83

query: Give INHIBITION for the following molecule: O=C(CC1CCN(c2ncnc3cccc(F)c23)CC1)N1CCCC1
result: -18.5

query: Give INHIBITION for the following molecule: CCNC(=O)CCC(=O)NCC1(O)CCC(C(C)(C)C)CC1 (stereo unspecified)
result: -23.8

query: Give INHIBITION for the following molecule: Cc1cccn2c(=O)cc(OC(=O)c3ccc(OC(C)C)cc3)nc12
result: -5.59

query: Give INHIBITION for the following molecule: Cn1cnc2ccc(NC(=O)CCCn3cccn3)cc2c1=O
result: 2.84

query: Give INHIBITION for the following molecule: c1cnc(N2CCOCC3(CCCN(CC4CCOCC4)C3)C2)nc1 (stereo unspecified)
result: -4.88

###

system: Plasmodium berghei; test: Screen against P. berghei liver stage (PbLuc), transformed with Luciferase, at 10uM; assay type: functional, HepG2; details: tested at 10 uM
Hit rate of the full screen: of about 69,000 compounds, about 8,600 (12%) showed an effect of 50% or more. The entries come from a sample that favours strong results as a whole.
assay_endpoint: INHIBITION (%)
All answers are understood in %, so give the number only.

query: Give INHIBITION for the following compound: Cc1cnn(CCNCC(O)COc2c(C)ccc(C)c2C)c1 (centres undefined)
result: 52.7

query: Give INHIBITION for the following compound: Cc1cnn(CCNCC(O)COc2ccc(C#N)cc2)c1 (centres undefined)
result: 26.3

query: Give INHIBITION for the following compound: Cc1cnn(CCNCC(O)COc2ccc(Cl)cc2)c1 (centres undefined)
result: 45.8

query: Give INHIBITION for the following compound: O=C(c1cnc(NCc2sccc2Br)c(Cl)c1)N1CCCCC1
result: 24.2

query: Give INHIBITION for the following compound: O=C(NC[C@H]1OC[C@@H](NC2CCC(F)(F)CC2)[C@@H]1O)c1ccccc1
result: 59.3

query: Give INHIBITION for the following compound: O=C(c1cnc(NCc2cccnc2)c(Cl)c1)N1CCCCC1
result: 56.3

query: Give INHIBITION for the following compound: O=C(CCn1ccccc1=O)Nc1ccc(C(=O)O)cc1
result: 12.7

query: Give INHIBITION for the following compound: COc1cc(N2C[C@@H]3COC[C@@H](Cc4nnc(C)o4)[C@@H]3C2)ncn1
result: 50.3

query: Give INHIBITION for the following compound: Cc1cnn(CCNCC(=O)NCCOc2ccccc2)c1
result: 57.2

query: Give INHIBITION for the following compound: CC(=O)Nc1ccc(OCc2noc(C(=O)N3CCCCCC3)n2)cc1
result: 64.7

query: Give INHIBITION for the following compound: Cc1ccc(CN2CCN(c3cncc(N(C)C)n3)CC2=O)cc1C
result: 56.3

query: Give INHIBITION for the following compound: O=C(c1cnoc1)N1CCC[C@]2(C[C@@H](OCc3ccccn3)CO2)C1
result: 8.47

query: Give INHIBITION for the following compound: Cc1cnn(CCNCC(O)COc2ccc(F)cc2)c1 (centres undefined)
result: 54.4

query: Give INHIBITION for the following compound: N#Cc1ccc(CNc2ncc(C#N)cc2Cl)cc1
result: 20.1

query: Give INHIBITION for the following compound: Cc1cnn(CCNCC(=O)NCCOc2ccc(F)cc2)c1
result: 45.7

query: Give INHIBITION for the following compound: CCCS(=O)(=O)N1C[C@@H]2COC[C@@H](Cc3nc(C)no3)[C@@H]2C1
result: 61.9

query: Give INHIBITION for the following compound: N#Cc1cnc(NCc2cccc(C(=O)N3CCCC3)c2)c(Cl)c1
result: 57.5

query: Give INHIBITION for the following compound: CCN(CCNC(=O)Nc1nnc(C)s1)C(=O)OC(C)(C)C
result: -19.3

query: Give INHIBITION for the following compound: CN(C)[C@@H]1CO[C@H](CNC(=O)c2ccccc2)[C@H]1O
result: 53

query: Give INHIBITION for the following compound: Cc1ccc(CN2CCN(Cc3ccc(N(C)C)nc3)CC2=O)cc1C
result: 44

query: Give INHIBITION for the following compound: CC(=O)Nc1ccc(OCc2noc(C(=O)N3CCCCC3)n2)cc1
result: 17.1

query: Give INHIBITION for the following compound: Cc1cnn(CCNCC(=O)NCCOc2ccc(Cl)cc2)c1
result: -0.96

query: Give INHIBITION for the following compound: O=C(NC[C@H]1OC[C@@H](NC2CCC(F)(F)CC2)[C@@H]1O)Nc1ccccc1
result: 25.3

query: Give INHIBITION for the following compound: Cc1ccc(CN2CCN(c3ccc(F)cn3)CC2=O)cc1C
result: 11.2

###

What INHIBITION was measured for each of the following?
system: Plasmodium berghei; experiment: Screen against P. berghei liver stage (PbLuc), transformed with Luciferase, at 10uM; assay type: functional, HepG2; settings: tested at 10 uM
About 8,600 (12%) of roughly 69,000 compounds showed an effect of 50% or more. Shown is part of a subset that was picked to be rich in strong results.
All answers are understood in %, so give the number only.

query: Give INHIBITION for the following compound: Fc1cccc(CN2CCC[C@@H](Cn3nnc(-c4ccccn4)n3)C2)c1
result: 40.1

query: Give INHIBITION for the following compound: COCCN1C[C@@H]2CN(Cc3ccc(F)cc3)C[C@@H]2C1=O
result: 0.112

query: Give INHIBITION for the following compound: COC(=O)c1cccn1C1CCN(Cc2cccnc2)CC1
result: 11.6

query: Give INHIBITION for the following compound: NCc1cnn(-c2ccccc2C(=O)NCc2ccccn2)c1
result: 53.2

query: Give INHIBITION for the following compound: Cc1cnc(C(=O)N2CC[C@H]3[C@@H]2CCC(=O)N3c2cccnc2)cn1
result: 40.4

query: Give INHIBITION for the following compound: Cc1cc(CN2CC[C@H]3C(=O)N(c4ccccc4)CCO[C@H]3C2)no1
result: -33.5

query: Give INHIBITION for the following compound: O=C1[C@@H]2CCN(Cc3ccncc3)C[C@@H]2OCCN1c1ccccc1
result: 55.2

query: Give INHIBITION for the following compound: NCc1cnn(-c2ccccc2C(=O)NCc2ccncc2)c1
result: 17.1

query: Give INHIBITION for the following compound: Cc1ccc(C(=O)N2CC[C@@H]3[C@H]2CCC(=O)N3c2ccccc2)o1
result: 31.8

query: Give INHIBITION for the following compound: NCc1cnn(-c2ccccc2C(=O)NCCc2ccccn2)c1
result: 24.4

query: Give INHIBITION for the following compound: COc1ccccc1CN1C[C@@H]2CN(Cc3cccnc3)CCO[C@@H]2C1
result: 20.1

query: Give INHIBITION for the following compound: O=C1[C@@H]2CCN(Cc3ccccn3)C[C@@H]2OCCN1c1ccccc1
result: 10.1

query: Give INHIBITION for the following compound: COC(=O)c1cccn1C1CCN(Cc2nc3ccccc3o2)CC1
result: 15.6

query: Give INHIBITION for the following compound: Cc1cc(C)n(Cc2ccc(C(=O)N3CCOCC3(C)C)cc2)n1
result: 27.9

query: Give INHIBITION for the following compound: CCc1c(C)n(CCOC)c2nc3ccccc3n2c1=O
result: -7.81

query: Give INHIBITION for the following compound: Cn1ncc(N2CCOC(CCNC(=O)NC(C)(C)C)C2)cc1=O (centres undefined)
result: 71.2

query: Give INHIBITION for the following compound: CCC(CC)NC(=O)c1nc2n(n1)-c1ccccc1S(=O)(=O)N2
result: -9.07

query: Give INHIBITION for the following compound: COCCNC(=O)c1ccccc1-n1cc(CN)cn1
result: 17.1

query: Give INHIBITION for the following compound: COC(=O)c1cccn1C1CCN(Cc2cccc(C(N)=O)c2)CC1
result: 45.1

query: Give INHIBITION for the following compound: Cc1ccccc1C(=O)NC(C)CN1CCOC1=O (centres undefined)
result: 39.3

query: Give INHIBITION for the following compound: CCOC(=O)CC(c1cccc(OC)c1OC)c1c(C)[nH][nH]c1=O (centres undefined)
result: 3.6

query: Give INHIBITION for the following compound: O=C(c1cc(Br)ccc1-n1cnnn1)N1CCCC1
result: 28.6

query: Give INHIBITION for the following compound: Cc1cc(CN2CC[C@H]3C(=O)N(c4cccnc4)CCO[C@H]3C2)no1
result: 53.2

query: Give INHIBITION for the following compound: O=C(c1ccco1)N1CC[C@@H]2[C@H]1CCC(=O)N2c1ccccc1
result: 30.3

query: Give INHIBITION for the following compound: CC(C)(C)n1nc(C2CC2)cc1C(=O)NC1CCN(CC(N)=O)CC1
result: 56

query: Give INHIBITION for the following compound: CN1CCN(Cc2cccnc2)C2(CCN(Cc3ccoc3)C2)C1=O (centres undefined)
result: -24.9

query: Give INHIBITION for the following compound: CCNC(=O)[C@@H]1C[C@@H](NC(=O)CSC)CN1Cc1ccncc1
result: 29.6

query: Give INHIBITION for the following compound: CC(C)(C)n1nc(C(=O)NC2CCN(CC(N)=O)CC2)cc1C1CC1
result: 5.03

query: Give INHIBITION for the following compound: O=C1[C@@H]2CCN(Cc3ccoc3)C[C@@H]2OCCN1Cc1cccc(F)c1
result: 70.7

query: Give INHIBITION for the following compound: COC(=O)c1cccn1C1CCN(CCN2C(=O)CCC2=O)CC1
result: 1.75

query: Give INHIBITION for the following compound: Cn1ccc2cc(C(=O)NC3CCS(=O)(=O)C3)ccc21 (centres undefined)
result: -42.5

query: Give INHIBITION for the following compound: COC(=O)c1cccn1C1CCN(Cc2ccccc2)CC1
result: 56.1

query: Give INHIBITION for the following compound: Cn1ccc(C(=O)NCc2ccc(N3CCCCCC3)nc2)cc1=O
result: 17.4

query: Give INHIBITION for the following compound: O=C(CC1CC1)N1CC[C@H]2[C@@H]1CCC(=O)N2c1cccnc1
result: 58.6

query: Give INHIBITION for the following compound: CC(C)C(=O)NS(=O)(=O)c1ccc(C#N)cc1C(F)(F)F
result: -4.94

query: Give INHIBITION for the following compound: O=C(C1CC1)N1CC[C@H]2[C@@H]1CCC(=O)N2c1ccccc1
result: 12.1

query: Give INHIBITION for the following compound: Cc1ccc(C(=O)N2CC[C@H]3[C@@H]2CCC(=O)N3c2ccccc2)cn1
result: 16.8

query: Give INHIBITION for the following compound: c1cnc(NC2COC3(CCN(Cc4cc[nH]n4)CC3)C2)nc1 (centres undefined)
result: 26.3

query: Give INHIBITION for the following compound: N#CCCCn1cnc2c(F)cc(Br)cc2c1=O
result: 46.4

query: Give INHIBITION for the following compound: CC(C)(C)C(=O)NS(=O)(=O)c1ccc(C#N)cc1C(F)(F)F
result: 39.2

query: Give INHIBITION for the following compound: O=C(CN1CCC[C@@H]1C(=O)O)NCCOc1cccc(C(F)(F)F)c1
result: -0.18

query: Give INHIBITION for the following compound: Cc1ccc(N2CCO[C@H]3CN(Cc4cc(C)on4)CC[C@H]3C2=O)cn1
result: 48.6

query: Give INHIBITION for the following compound: O=C(C[C@@H]1COC[C@H]2CN(C(=O)c3cccnc3)C[C@@H]12)N1CCCC1
result: -19.5

query: Give INHIBITION for the following compound: Cc1ccccc1OCC(=O)NCC(c1ccc(N(C)C)cc1)N(C)C (centres undefined)
result: 27.5

Ref: ChEMBL document CHEMBL4513216
